Values compiled from patent US20030064954A1.

Quick reference for melting point among some compounds

Example results:
CCOC(=O)C1=C(C)NC(C)=C(C(=O)OCC)C1c1ccc[n+](-c2ccc([N+](=O)[O-])cc2[N+](=O)[O-])c1.Cl.[Cl-] ... 178 to 180 °C
Br.CCCOCCOC(=O)C1=C(C)NC(C)=C(C(=O)OCCOCCC)C1c1ccc[n+](CC(=O)OCC)c1.[Br-] ... 144 to 146 °C
Br.CCOC(=O)C1=C(C)NC(C)=C(C(=O)OCC)C1c1ccc[n+](Cc2ccc([N+](=O)[O-])cc2)c1.[Br-] ... 212 to 213 °C (dec.)

Now consider the entry below.
May I ask what melting point has been recorded for Br.CCCOCCOC(=O)C1=C(C)NC(C)=C(C(=O)OCCOCCC)C1c1ccc[n+](CC(=O)c2ccccc2)c1.[Br-] ? 135 to 138 °C

* * *

Listing: melting point of selected compounds

Field: example entries. Status: answers known.
Br.CCCCCCCCCCCCCCCC[n+]1cccc(C2C(C(=O)OC3CC(C)CCC3C(C)C)=C(C)NC(C)=C2C(=O)OC2CC(C)CCC2C(C)C)c1.[Br-] (centres unmarked) ... 115 to 117 °C
Br.CCCCCCCCCCCCCCCC[n+]1cccc(C2C(C(=O)OC(C)CC)=C(C)NC(C)=C2C(=O)OC(C)CC)c1.[Br-] (centres unmarked) ... 159 to 165 °C
CC1=C(C(=O)OC(C)(C)C)C(c2ccc[n+](C)c2)C(C(=O)OC(C)(C)C)=C(C)N1.I.[I-] ... 166 to 169 °C
CCCOCCOC(=O)C1=C(C)NC(C)=C(C(=O)OCCOCCC)C1c1ccc[n+](C)c1.I.[I-] ... 59 to 61 °C
CC1=C(C(=O)OC2CC(C)CCC2C(C)C)C(c2ccc[n+](C)c2)C(C(=O)OC2CC(C)CCC2C(C)C)=C(C)N1.I.[I-] (centres unmarked) ... 156 to 159 °C
Br.CCCCCCCCCCCCCCCC[n+]1ccc(C2C(C(=O)OCC)=C(C)NC(C)=C2C(=O)OCC)cc1.[Br-] ... 95 to 98 °C
Br.CCCCCCCCCCCCCCCC[n+]1ccccc1C1C(C(=O)OCC)=C(C)NC(C)=C1C(=O)OCC.[Br-] ... 117 to 121 °C
Br.CCOC(=O)C[n+]1ccccc1C1C(C(=O)OCC)=C(C)NC(C)=C1C(=O)OCC.[Br-] ... 197 to 199 °C

# melting point lookup, item CCOC(=O)C1=C(C)NC(C)=C(C(=O)OCC)C1c1cccc[n+]1C.I.[I-] 197 to 199 °C

What do you get for Br.CCCCCCCCCCCCCCCC[n+]1cccc(C2C(C(=O)OCCCCCCCCCCCCCC)=C(C)NC(C)=C2C(=O)OCCCCCCCCCCCCCC)c1.[Br-] ? 133 to 135 °C

What would you report for Br.CCCCCCCCCCCCCCCC[n+]1cccc(C2C(C(=O)OCC)=C(C)NC(C)=C2C(=O)OCC)c1.[Br-] ? 135 to 136 °C

* * *

Experimental Readout: melting point

Examples from the recorded data:
Br.CCOC(=O)C[n+]1cccc(C2C(C(=O)OC)=C(C)NC(C)=C2C(=O)OC)c1.[Br-] ... 180 °C (dec.)
CCCCCCC[n+]1cccc(C2C(C(=O)OCC)=C(C)NC(C)=C2C(=O)OCC)c1.I.[I-] ... 165 to 167 °C
Br.CCOC(=O)C1=C(C)NC(C)=C(C(=O)OCC)C1c1ccc[n+](CCCCCCCCCCCC(=O)O)c1.[Br-] ... 152 to 156 °C
Br.CCOCCOC(=O)C1=C(C)NC(C)=C(C(=O)OCCOCC)C1c1ccc[n+](CC(=O)OCC)c1.[Br-] ... 163 to 165 °C
Br.CCCCCCCCCCCCCCCC[n+]1cccc(C2C(C(=O)OCCOCCC)=C(C)NC(C)=C2C(=O)OCCOCCC)c1.[Br-] ... 93 to 96 °C

Give its melting point value. Item: CC1=C(C(=O)OC2CC3CCC2(C)C3(C)C)C(c2cc[n+](C)cc2)C(C(=O)OC2CC3CCC2(C)C3(C)C)=C(C)N1.I.[I-] (stereo not shown) 270 °C (dec.)

Same lookup for CC1=C(C(=O)OC2CC3CCC2(C)C3(C)C)C(c2ccc[n+](C)c2)C(C(=O)OC2CC3CCC2(C)C3(C)C)=C(C)N1.I.[I-] (stereo not shown) , please. 271 to 274 °C

* * *

Each entry below carries its recorded melting point.

Use these answered entries as a reference point.
Br.CCOC(=O)C[n+]1ccc(C2C(C(=O)OCC)=C(C)NC(C)=C2C(=O)OCC)cc1.[Br-] ... 140 to 143 °C
CCCCCCCCCCCCCCCCOC(=O)C1=C(C)NC(C)=C(C(=O)OCCCCCCCCCCCCCCCC)C1c1ccc[n+](CC(N)=O)c1.I.[I-] ... 140 to 141 °C (dec.)
Br.CCOC(=O)C1=C(C)NC(C)=C(C(=O)OCC)C1c1ccc[n+](CCCCCCCCCCC(=O)O)c1.[Br-] ... 134 to 136 °C

Given the compound Br.CCCCCCCCC[n+]1cccc(C2C(C(=O)OCC)=C(C)NC(C)=C2C(=O)OCC)c1.[Br-] , what is its reported melting point? 142 to 143 °C (dec.)

Entry to check: CCCCOC(=O)C1=C(C)NC(C)=C(C(=O)OCCCC)C1c1ccc[n+](C)c1.I.[I-] 161 to 164 °C

What do we get for CC1=C(C(=O)OCc2ccc([N+](=O)[O-])cc2)C(c2ccc[n+](C)c2)C(C(=O)OCc2ccc([N+](=O)[O-])cc2)=C(C)N1.I.[I-] ? 202 to 203 °C

Try this compound too: CCCCCCCCCCCCCCOC(=O)C1=C(C)NC(C)=C(C(=O)OCCCCCCCCCCCCCC)C1c1ccc[n+](C)c1.I.[I-] 114 to 115 °C

Also need Br.CCCCCCCCCCCCCCOC(=O)C1=C(C)NC(C)=C(C(=O)OCCCCCCCCCCCCCC)C1c1ccc[n+](CCCCCCCCC)c1.[Br-] , thanks. 124 to 126 °C (dec.)

Next compound up: Br.CCCCCCCCCCCCCCCCOC(=O)C1=C(C)NC(C)=C(C(=O)OCCCCCCCCCCCCCCCC)C1c1ccc[n+](CC(=O)c2ccccc2)c1.[Br-] 148 to 150 °C

// next record Br.CCCCCCCCCCCCCCCCOC(=O)C1=C(C)NC(C)=C(C(=O)OCCCCCCCCCCCCCCCC)C1c1ccc[n+](CC(=O)OCC)c1.[Br-] 99 to 102 °C

How about this compound: CCCCCCCCCCCCCCCCOC(=O)C1=C(C)NC(C)=C(C(=O)OCCCCCCCCCCCCCCCC)C1c1ccc[n+](C)c1.I.[I-] 112 to 113 °C (dec.)

Also need Br.CCOC(=O)C1=C(C)NC(C)=C(C(=O)OCC)C1c1cc[n+](CC(=O)c2ccccc2)cc1.[Br-] , thanks. 224 to 227 °C

Would you kindly repeat that for Br.CCOC(=O)C[n+]1cccc(C2C(C(=O)OC3CC(C)CCC3C(C)C)=C(C)NC(C)=C2C(=O)OC2CC(C)CCC2C(C)C)c1.[Br-] (centres unmarked) ? 180 °C (dec.)

And CCCCCCCCCCCCCCCC(=O)OCCCOC(=O)C1=C(C)NC(C)=C(C(=O)OCCCOC(=O)CCCCCCCCCCCCCCC)C1c1ccc[n+](C)c1.I.[I-] ? 143 to 146 °C

* * *

- Test system: CV-1P (African monkey green kidney fibroblasts cells)
- Method Notes: In vitro transfection of plasmid DNA, β-galactosidase activity per well
- Assay type: cell-based
- Experimental Setup: CVI-P; amphiphile/DNA +/− charge ratio 4
Experimental Readout: transfection efficiency

Please tell me: transfection efficiency of CCCCCCCCCCOC(=O)C1=C(C[N+](C)(C)CCCCCCCC)NC(C[N+](C)(C)CCCCCCCC)=C(C(=O)OCCCCCCCCCC)C1c1ccccc1.[Br-].[Br-] [XXVII] , system CV-1P (African monkey green kidney fibroblasts cells)? 21,46 β-galactosidase units per well

Also check CCCCCCCCCCCCCCCCOC(=O)C1=C(C[n+]2ccccc2)NC(C[n+]2ccccc2)=C(C(=O)OCCCCCCCCCCCCCCCC)C1c1ccccc1.[Br-].[Br-] [XXV] 15,15 β-galactosidase units per well

Entry CCCCCCCCCCCCOC(=O)C1=C(C)NC(C)=C(C(=O)OCCCCCCCCCCCC)C1c1ccc[n+](C)c1.I.[I-] [V] please 5,95 β-galactosidase units per well

* * *

Items are presented alongside their recorded transfection efficiency.
- Tested on: CV-1P (African monkey green kidney fibroblasts cells)
- Method Notes: In vitro transfection of plasmid DNA, β-galactosidase activity per well
- Format: cell-based
- Experimental Setup: CVI-P; amphiphile/DNA +/− charge ratio 4

Query (compound): CCCCCCCCCCCCCCCCOC(=O)C1=C(C)NC(C)=C(C(=O)OCCCCCCCCCCCCCCCC)C1c1ccc[n+](C)c1.I.[I-] ; field requested: transfection efficiency 0,81 β-galactosidase units per well

Also, CCCCCCCCCCCCCCCC(=O)OCCOC(=O)C1=C(C)NC(C)=C(C(=O)OCCOC(=O)CCCCCCCCCCCCCCC)C1c1ccc[n+](C)c1.I.[I-] please. 0,73 β-galactosidase units per well

What do we get for CCCCCCCC/C=C\CCCCCCCC(=O)OCC(C[N+](C)(C)C)OC(=O)CCCCCCC/C=C\CCCCCCCC.[Cl-] (stereo not drawn) [DOTAP, reference compound] ? 10,5 β-galactosidase units per well

Entry CCCCCCCCCCCCOC(=O)C1=C(C[n+]2ccccc2)NC(C[n+]2ccccc2)=C(C(=O)OCCCCCCCCCCCC)C1c1ccccc1.[Br-].[Br-] please 122,8 β-galactosidase units per well

Let us now turn to CCCCCCCCCCCCCCOC(=O)C1=C(C)NC(C)=C(C(=O)OCCCCCCCCCCCCCC)C1c1ccc[n+](C)c1.I.[I-] 2,16 β-galactosidase units per well

And what about the compound CCCCCCCCCCCCCCOC(=O)C1=C(C[n+]2ccccc2)NC(C[n+]2ccccc2)=C(C(=O)OCCCCCCCCCCCCCC)C1c1ccccc1.[Br-].[Br-] ? 47,78 β-galactosidase units per well
